Test: clinical
Conditions: human, in vivo, iv, 500 mg
Readout: level at 24 h
Be sure to follow the number with its unit.

Recorded level at 24 h (compound CC(C)[C@H]1C(=O)N[C@@H](CCCNC(=N)N)C(=O)NCC(=O)N[C@@H](CC(=O)O)C(=O)N[C@H](Cc2ccccc2)C(=O)N1C [Cilengitide] ): 333 ng/mL

###

Assay: clinical
Conditions: human, in vivo, iv, 2000 mg
Readout: level at 24 h (ng/mL)
Give your result in ng/mL as a bare value.

Recorded level at 24 h (compound CC(C)[C@H]1C(=O)N[C@@H](CCCNC(=N)N)C(=O)NCC(=O)N[C@@H](CC(=O)O)C(=O)N[C@H](Cc2ccccc2)C(=O)N1C [Cilengitide] ): 386

###

Assay: Tumor tissue concentrations of cilengitide at resection, HPLC-MS/MS
Assay type: in vivo, patients
Conditions: human, iv, 500 mg
Readout: tissue level at time at 24 h (ng/g)
Give your result in ng/g as a bare value.

Recorded tissue level at time at 24 h (compound CC(C)[C@H]1C(=O)N[C@@H](CCCNC(=N)N)C(=O)NCC(=O)N[C@@H](CC(=O)O)C(=O)N[C@H](Cc2ccccc2)C(=O)N1C [Cilengitide] ): 919
